Here the recorded AC50 is given for each entry.
# Target: Prostaglandin G/H synthase 1 (Rattus norvegicus); note: assay procedure not described here
# Sequence (Q63921 whole entry): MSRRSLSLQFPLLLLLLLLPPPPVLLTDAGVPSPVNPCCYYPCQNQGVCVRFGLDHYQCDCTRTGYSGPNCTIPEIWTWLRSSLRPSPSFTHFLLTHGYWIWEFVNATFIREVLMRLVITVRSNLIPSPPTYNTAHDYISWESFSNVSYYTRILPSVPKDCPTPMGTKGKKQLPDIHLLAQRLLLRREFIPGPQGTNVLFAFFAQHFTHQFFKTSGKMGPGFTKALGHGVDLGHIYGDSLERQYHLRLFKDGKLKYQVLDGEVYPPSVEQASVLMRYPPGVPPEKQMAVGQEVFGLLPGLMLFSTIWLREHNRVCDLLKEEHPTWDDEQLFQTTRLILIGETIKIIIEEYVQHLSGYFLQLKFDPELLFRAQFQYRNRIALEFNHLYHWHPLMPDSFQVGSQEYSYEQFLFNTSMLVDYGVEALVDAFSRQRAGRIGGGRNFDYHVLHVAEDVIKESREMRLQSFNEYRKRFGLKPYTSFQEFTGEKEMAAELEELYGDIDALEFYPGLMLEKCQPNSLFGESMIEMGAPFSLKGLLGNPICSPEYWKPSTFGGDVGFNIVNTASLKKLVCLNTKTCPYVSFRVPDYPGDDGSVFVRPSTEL
# Format: functional

compound `CN(C)Cc1nnc2n1-c1ccc(Cl)cc1C(c1ccccc1)=NC2` , AC50 observed: > 10 µM

compound CC(O)(CS(=O)(=O)c1ccc(F)cc1)C(=O)Nc1ccc(C#N)c(C(F)(F)F)c1 (centres undefined) [BICALUTAMIDE] , AC50 observed: > 30 µM

compound `CC/C=C\C/C=C\C/C=C\C/C=C\C/C=C\CCCC(=O)OCC` , AC50 observed: 2.4 µM

compound `CN(C)C/C=C/C(=O)Nc1cc2c(Nc3ccc(F)c(Cl)c3)ncnc2cc1O[C@H]1CCOC1` , AC50 observed: > 30 µM

compound `CC(C)C[C@H](NC(=O)[C@@H](O)[C@H](N)Cc1ccccc1)C(=O)O` , AC50 observed: > 30 µM

Others:
compound `CCCN(CCC)S(=O)(=O)c1ccc(C(=O)O)cc1` , AC50 observed: > 10 µM

compound Cc1cccc(C)c1NC(=O)CC12CCCN1CCC2 [PILSICAINIDE] , AC50 observed: > 30 µM

compound `Oc1ccc(CCNCCCCCCNCCc2ccccc2)cc1O` , AC50 observed: > 30 µM

compound `CC(C)(O/N=C(\C(=O)N[C@@H]1C(=O)N2C(C(=O)[O-])=C(C[n+]3ccccc3)CS[C@H]12)c1csc(N)n1)C(=O)O` , AC50 observed: > 300 µM
